B1: Twister Ribozyme (parent)
chain: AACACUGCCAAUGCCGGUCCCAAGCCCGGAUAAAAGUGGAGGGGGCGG

Variants of: B1
Test: self-cleavage, relative activity (ratio to wild type); higher = more cleavage; co-transcriptional
Cut-off 0.4 on self-cleavage, inclusive. At or above means TRUE; below means FALSE.

Take a look at these entries with their results.
{"columns": ["MUTANT_LABEL", "CLASS_LABEL"],
 "data": [
  ["A10G C15A", "TRUE"],
  ["C3G A22U", "FALSE"],
  ["G16C U18A", "FALSE"],
  ["A35G G41A", "FALSE"],
  ["C46U G48A", "TRUE"]
]}

Task: Has A10U A34U a recorded self-cleavage greater than or equal to 0.4?
Output: TRUE

Task: Has C8U G13U a recorded self-cleavage greater than or equal to 0.4?
Output: FALSE

Task: Has C26G G45U a recorded self-cleavage greater than or equal to 0.4?
Output: FALSE

Task: Has C3A U6A a recorded self-cleavage greater than or equal to 0.4?
Output: FALSE

Source: the RNAGym collection of RNA variant scans (doi:10.7554/elife.80360)
